The measured values listed here are drawn from patent US20170096461A1.

Target: T1, HLA-A*02:01 (peptide-receptive MHC class I monomer after UV-ligand exchange) (human)
T1 construct: Monomers made with a UV-sensitive peptide that is cleaved by UV and exchanged for the test peptide; captured on streptavidin plates; also called MHC molecules
Experiment: UV-ligand exchange + anti-b2m ELISA; exchange yield grade: + >=10%, ++ >=20%, +++ >=50, ++++ >=75%
measured-quantity: peptide exchange yield

Q: Please report the measured peptide exchange yield for ALSSVIKEL [peptide ALSSVIKEL (SEQ ID NO: 82)]
A: 50 to 75%

Q: Please report the measured peptide exchange yield for KLDKNPNQV [peptide KLDKNPNQV (SEQ ID NO: 123)]
A: 50 to 75%

Q: Please report the measured peptide exchange yield for QMLEAIKALEV [peptide QMLEAIKALEV (SEQ ID NO: 99)]
A: ≥ 75%

Q: Please report the measured peptide exchange yield for VLFHQLQEI [peptide VLFHQLQEI (SEQ ID NO: 64)]
A: 50 to 75%
